Entries annotated with measured IC50
test system: P388; experiment: In vitro inhibition of P388 (murine leukemia) cell growth.; type: functional, cell-based, Mus musculus; settings: Mus musculus, P388
Give the value in µM but do not write µM after it.

Below: 4 compounds and their reported IC50.
NCC(CN)Cc1ccc(Nc2c3ccccc3nc3ccccc23)cc1 :: 7.2
NCC(CN)CCc1ccc(Nc2c3ccccc3nc3ccccc23)cc1 :: 0.31
NCC(CN)CCCCCc1ccc(Nc2c3ccccc3nc3ccccc23)cc1 :: 0.72
NCCNCCCCc1ccc(Nc2c3ccccc3nc3ccccc23)cc1 :: 7.8

Problem: Any idea what IC50 was measured for "NCC(CN)CCCc1ccc(Nc2c3ccccc3nc3ccccc23)cc1" ?
Solution: 0.12

Problem: Would you kindly repeat that for "NCC(CN)CCCCc1ccc(Nc2c3ccccc3nc3ccccc23)cc1" ?
Solution: 0.72

Problem: Would you kindly repeat that for "NCCNCCCc1ccc(Nc2c3ccccc3nc3ccccc23)cc1" ?
Solution: 3.7

Problem: Would you kindly repeat that for "NCCNCCCCCc1ccc(Nc2c3ccccc3nc3ccccc23)cc1" ?
Solution: 7.3

Problem: Would you kindly repeat that for "NCCNCCc1ccc(Nc2c3ccccc3nc3ccccc23)cc1" ?
Solution: 12.5

Source: ChEMBL document CHEMBL1125006
